pIC50: −log10 of the molar value.
Target or system RAC-alpha serine/threonine-protein kinase (Homo sapiens, UniProt P31749); recorded quantity pIC50.

{"smiles string": "Fc1ccc2[nH]c(C3CCN(Cc4ccc(-c5ncc(-c6nn[nH]n6)cc5-c5ccccc5)cc4)CC3)nc2c1", "pIC50": 6.62}
{"smiles string": "Oc1nc2ccccc2n1C1CCN(Cc2ccc(-c3cc4ccccc4nc3-c3ccccc3)cc2)CC1", "pIC50": 5.50}
{"smiles string": "N#Cc1cnc(-c2ccc(CN3CCC(c4nc5cc(F)ccc5[nH]4)CC3)cc2)c(-c2ccccc2)c1", "pIC50": 6.06}
{"smiles string": "N#Cc1cnc(-c2ccc(CN3CCC(n4c(=O)[nH]c5ccccc54)CC3)cc2)c(-c2ccccc2)c1", "pIC50": 6.12}

---

target: RAC-alpha serine/threonine-protein kinase (Homo sapiens, UniProt P31749); test: Inhibitory concentration against Akt1 kinase
Sequence (P31749 whole entry): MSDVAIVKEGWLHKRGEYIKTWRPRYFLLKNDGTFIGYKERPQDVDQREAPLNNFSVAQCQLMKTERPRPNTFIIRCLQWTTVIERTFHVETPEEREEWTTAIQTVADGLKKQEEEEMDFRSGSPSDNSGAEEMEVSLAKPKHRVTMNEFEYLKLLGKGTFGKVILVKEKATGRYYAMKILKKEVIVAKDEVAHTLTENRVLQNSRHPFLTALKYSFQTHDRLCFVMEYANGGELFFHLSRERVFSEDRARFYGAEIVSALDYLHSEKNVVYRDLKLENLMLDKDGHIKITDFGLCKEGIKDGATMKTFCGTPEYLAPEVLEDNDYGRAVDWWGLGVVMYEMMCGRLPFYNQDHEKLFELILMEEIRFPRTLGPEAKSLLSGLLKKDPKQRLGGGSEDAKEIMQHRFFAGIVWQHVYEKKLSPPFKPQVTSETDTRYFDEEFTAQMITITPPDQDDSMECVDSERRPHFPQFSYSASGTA
IC50 for assorted molecules
measure name: IC50 (nM)

{"smiles string": "Oc1nc2ccccc2n1C1CCN(Cc2ccc(-c3nc4ccccc4cc3-c3ccccc3)cc2)CC1", "unit label": "nM", "measurement": 365}
{"smiles string": "Cn1nnnc1-c1cnc(-c2ccc(CN3CCC(n4c(=O)[nH]c5ccccc54)CC3)cc2)c(-c2ccccc2)c1", "unit label": "nM", "measurement": 1770}
{"smiles string": "Cc1nc2ccccc2n1C1CCN(Cc2ccc(-c3ncc(C#N)cc3-c3ccccc3)cc2)CC1", "unit label": "nM", "measurement": 7410}
{"smiles string": "O=c1[nH]c2ccccc2n1C1CCN(Cc2ccc(-c3ncc(-c4nnn[nH]4)cc3-c3ccccc3)cc2)CC1", "unit label": "nM", "measurement": 273}

---

experiment: Inhibitory concentration against Akt2 kinase; parameters: species or system Homo sapiens
pIC50: −log10 of the molar value.
Each record's pIC50 is compared with group A (below 5), group B (5 to below 6), group C (6 or more) to give its class.

{"smiles string": "Oc1nc2ccccc2n1C1CCN(Cc2ccc(-c3cc4ccccc4nc3-c3ccccc3)cc2)CC1", "assigned label": "group A"}
{"smiles string": "Cc1nc2ccccc2n1C1CCN(Cc2ccc(-c3ncc(C#N)cc3-c3ccccc3)cc2)CC1", "assigned label": "group A"}
{"smiles string": "Cc1nc2ccccc2n1C1CCN(Cc2ccc(-c3ncc(-c4nn[nH]n4)cc3-c3ccccc3)cc2)CC1", "assigned label": "group B"}
{"smiles string": "N#Cc1cnc(-c2ccc(CN3CCC(c4nc5cc(F)ccc5[nH]4)CC3)cc2)c(-c2ccccc2)c1", "assigned label": "group B"}
{"smiles string": "O=c1[nH]c2ccccc2n1C1CCN(Cc2ccc(-c3ncc(-c4nnn[nH]4)cc3-c3ccccc3)cc2)CC1", "assigned label": "group C"}
{"smiles string": "Cn1nnnc1-c1cnc(-c2ccc(CN3CCC(n4c(=O)[nH]c5ccccc54)CC3)cc2)c(-c2ccccc2)c1", "assigned label": "group C"}
{"smiles string": "Fc1ccc2[nH]c(C3CCN(Cc4ccc(-c5ncc(-c6nn[nH]n6)cc5-c5ccccc5)cc4)CC3)nc2c1", "assigned label": "group B"}
{"smiles string": "N#Cc1cnc(-c2ccc(CN3CCC(n4c(=O)[nH]c5ccccc54)CC3)cc2)c(-c2ccccc2)c1", "assigned label": "group B"}
{"smiles string": "c1ccc(-c2cc(-c3nn[nH]n3)cnc2-c2ccc(CN3CCC(n4cnc5ccccc54)CC3)cc2)cc1", "assigned label": "group B"}
{"smiles string": "c1ccc(-c2cc(-c3nn[nH]n3)cnc2-c2ccc(CNCc3ccc(-c4csnn4)cc3)cc2)cc1", "assigned label": "group C"}
{"smiles string": "Cc1ccc2[nH]c(C3CCN(Cc4ccc(-c5ncc(-c6nn[nH]n6)cc5-c5ccccc5)cc4)CC3)nc2c1", "assigned label": "group C"}
{"smiles string": "N#Cc1cnc(-c2ccc(CNCc3ccc(-c4csnn4)cc3)cc2)c(-c2ccccc2)c1", "assigned label": "group B"}
